The values you see were collected from ChEMBL document CHEMBL2331413.

# Lookup of reported pIC50 keyed by entry
System: Plasmodium falciparum
assayExplanation: Antimalarial activity against chloroquine-resistant Plasmodium falciparum K1 infected in RBC by [3H]hypoxanthine incorporation assay in presence of 50 % serum
Assay type: functional, organism-based
# reply with the number alone; pIC50 is -log10 of concentration in mol/L

Before answering, review these 3 worked examples.
- CCCN(CCC)Cc1cc(CNC[C@@H](O)[C@H](Cc2ccccc2)NC(=O)c2ccc(N3CCN(C)CC3)cc2)ccc1O: 8.02
- Cc1cc(Nc2ccc(C(=O)N[C@@H](Cc3ccccc3)[C@H](O)CN[C@H](C)c3ccccc3)cc2)ccn1: 7.59
- C[C@@H](NC[C@@H](O)[C@H](Cc1ccccc1)NC(=O)c1ccc(NC2CCN(C)CC2)cc1)c1ccccc1: 7.80

Moving on to another compound below.
Problem: Form field: reported pIC50 of C[C@@H](NC[C@@H](O)[C@H](Cc1ccccc1)NC(=O)c1ccc(CN2CCCCC2)c(O)c1)c1ccccc1
Solution: 8.11
